The reported measurements were obtained from ChEMBL document CHEMBL3351747.

- run description: Inhibition of 20s proteasome subunit beta-5c in human Raji cells using BODIPY-NC005 by fluorescent densitometry
- Assay type: cell-based
Heads up, the class ranges for IC50 are bin A = under 80 nM, bin B = from 80 nM up to 800 nM, bin C = 800 nM and over

smi: C[C@@H](NC(=O)CN1CCOCC1)C(=O)N[C@@H](Cc1c[nH]c2ccccc12)C(=O)N[C@@H](CC1CCCCC1)C(=O)[C@@]1(C)CO1
cat: bin C
//
smi: COc1ccc(C[C@H](NC(=O)[C@@H](C)NC(=O)C2=C(C)c3ccccc3C2)C(=O)N[C@@H](CC2CCCCC2)C(=O)[C@@]2(C)CO2)cc1
cat: bin C
//
smi: COc1ccc(C[C@H](NC(=O)[C@H](C)NC(=O)CN2CCOCC2)C(=O)N[C@@H](Cc2ccc3ccccc3c2)C(=O)[C@@]2(C)CO2)cc1
cat: bin B
//
smi: COc1ccc(C[C@H](NC(=O)[C@H](C)NC(=O)CN2CCOCC2)C(=O)N[C@H](/C=C/S(C)(=O)=O)Cc2ccccc2)cc1
cat: bin C
//
smi: COc1ccc(C[C@H](NC(=O)[C@H](C)NC(=O)C2=C(C)c3ccccc3C2)C(=O)N[C@@H](Cc2ccccc2)C(=O)[C@@]2(C)CO2)cc1
cat: bin A
//
smi: C[C@@H](NC(=O)CN1CCOCC1)C(=O)N[C@@H](Cc1c[nH]c2ccccc12)C(=O)N[C@@H](Cc1ccccc1)C(=O)[C@@]1(C)CO1
cat: bin B
//
smi: COc1ccc(C[C@H](NC(=O)[C@@H](C)NC(=O)CN2CCOCC2)C(=O)N[C@@H](Cc2ccccc2)C(=O)[C@@]2(C)CO2)cc1
cat: bin B
//
smi: COc1ccc(C[C@H](NC(=O)[C@H](C)NC(=O)C2=C(C)c3ccccc3C2)C(=O)N[C@@H](Cc2ccc(-c3ccccc3)cc2)C(=O)[C@@]2(C)CO2)cc1
cat: bin A
//
smi: COc1ccc(C[C@H](NC(=O)[C@H](C)NC(=O)CN2CCOCC2)C(=O)N[C@H](/C=C/S(C)(=O)=O)CC2CCCCC2)cc1
cat: bin C

* * *

- test system: Proteasome subunit beta type-9 (Homo sapiens)
- Sequence (P28065 whole entry): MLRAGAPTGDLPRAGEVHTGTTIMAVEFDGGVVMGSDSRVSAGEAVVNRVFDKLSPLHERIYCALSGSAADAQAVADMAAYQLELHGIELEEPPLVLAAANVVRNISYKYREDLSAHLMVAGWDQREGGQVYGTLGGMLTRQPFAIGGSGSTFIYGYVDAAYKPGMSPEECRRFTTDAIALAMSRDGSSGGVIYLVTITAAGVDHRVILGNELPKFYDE
- run description: Inhibition of proteasome subunit beta-1i in human Raji cells using BODIPY- epoxomicin by fluorescent densitometry
- Type: cell-based
This listing pairs compounds with measured IC50.
measured property: IC50

smi: CCCC[C@H](NC(=O)[C@@H]1CCCN1C(=O)[C@H](C)NC(=O)CN=[N+]=[N-])C(=O)N[C@@H](CC(C)C)C(=O)[C@@]1(C)CO1
observed result: 45 nM
//
smi: CC1=C(C(=O)N[C@H](C)C(=O)N[C@@H](Cc2c[nH]c3ccccc23)C(=O)N[C@H](/C=C/S(C)(=O)=O)Cc2ccccc2)Cc2ccccc21
observed result: > 100000 nM
//
smi: COc1ccc(C[C@H](NC(=O)[C@@H](C)NC(=O)C2=C(C)c3ccccc3C2)C(=O)N[C@@H](CC2CCCCC2)C(=O)[C@@]2(C)CO2)cc1
observed result: > 10000 nM
//
smi: C[C@@H](NC(=O)CN1CCOCC1)C(=O)N[C@@H](Cc1c[nH]c2ccccc12)C(=O)N[C@@H](CC1CCCCC1)C(=O)[C@@]1(C)CO1
observed result: > 10000 nM
//
smi: CCCC[C@H](NC(=O)[C@@H]1CCCN1C(=O)[C@H](C)NC(=O)CN=[N+]=[N-])C(=O)N[C@@H](CC1CCCCC1)C(=O)[C@@]1(C)CO1
observed result: 87 nM
//
smi: CCCC[C@H](NC(=O)[C@@H]1CC(F)(F)CN1C(=O)[C@H](C)NC(=O)CN=[N+]=[N-])C(=O)N[C@@H](CC1CCCCC1)C(=O)[C@@]1(C)CO1
observed result: 95 nM
